- target_entity: T1, Caspase-2 (UniProt P42575 170-452, limits assumed)
- T1 sequence (looked up): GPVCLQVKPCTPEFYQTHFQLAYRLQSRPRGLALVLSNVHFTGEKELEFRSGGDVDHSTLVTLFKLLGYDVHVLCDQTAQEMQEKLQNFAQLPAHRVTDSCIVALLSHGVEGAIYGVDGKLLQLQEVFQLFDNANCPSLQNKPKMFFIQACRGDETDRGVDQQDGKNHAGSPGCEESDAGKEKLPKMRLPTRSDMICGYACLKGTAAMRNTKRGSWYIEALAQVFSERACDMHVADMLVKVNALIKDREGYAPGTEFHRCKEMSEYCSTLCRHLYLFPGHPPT
- protocol_description: cell-based or functional assay
Numbered stars: 1 amine (or outer) side, 2 acyl side, 3 side chain; on linkers, the order of the positions; unused ones are H or OH. Square brackets hold non-standard residues; d marks the D form. * marks the point of attachment. CH═CH‑CON(CH2Ph)2 = O=C(/C=C/*)N(Cc1ccccc1)Cc1ccccc1; CH═CH‑CON(CH3)CH2CH2Ph = CN(CCc1ccccc1)C(=O)/C=C/*; AAsp = aza-Asp, O=C(N(CC(=O)[*:3])N[*:1])[*:2]; CH═CH‑CON(CH3)CH2Ph = CN(Cc1ccccc1)C(=O)/C=C/*; Cbz = O=C(OCc1ccccc1)*
Rule: k2 under 300 M⁻¹ s⁻¹ gives NO, otherwise YES.

{"columns": ["binder", "answer_label"],
 "data": [
  ["Cbz-LET[AAsp]-{CH═CH‑CON(CH2Ph)2} (SMILES CC(C)C[C@H](NC(=O)OCc1ccccc1)C(=O)N[C@@H](CCC(=O)O)C(=O)N[C@H](C(=O)NN(CC(=O)O)C(=O)/C=C/C(=O)N(Cc1ccccc1)Cc1ccccc1)[C@@H](C)O) [Cbz-Leu-Glu-Thr-AAsp-CH═CH-CON(CH2Ph)2]", "NO"],
  ["Cbz-DEV[AAsp]-{CH═CH‑CON(CH2Ph)2} (SMILES CC(C)[C@H](NC(=O)[C@H](CCC(=O)O)NC(=O)[C@H](CC(=O)O)NC(=O)OCc1ccccc1)C(=O)NN(CC(=O)O)C(=O)/C=C/C(=O)N(Cc1ccccc1)Cc1ccccc1) [Cbz-Asp-Glu-Val-AAsp-CH═CH-CON(CH2Ph)2]", "NO"],
  ["Cbz-LET[AAsp]-{CH═CH‑CONHPh} [Cbz-Leu-Glu-Thr-AAsp-CH═CH-CONHPh]", "NO"],
  ["Cbz-LET[AAsp]-{CH═CH‑CON(CH3)CH2Ph} (SMILES CC(C)C[C@H](NC(=O)OCc1ccccc1)C(=O)N[C@@H](CCC(=O)O)C(=O)N[C@H](C(=O)NN(CC(=O)O)C(=O)/C=C/C(=O)N(C)Cc1ccccc1)[C@@H](C)O) [Cbz-Leu-Glu-Thr-AAsp-CH═CH-CON(CH3)CH2Ph]", "NO"],
  ["Cbz-DEV[AAsp]-{CH═CH‑CON(CH3)CH2Ph} (SMILES CC(C)[C@H](NC(=O)[C@H](CCC(=O)O)NC(=O)[C@H](CC(=O)O)NC(=O)OCc1ccccc1)C(=O)NN(CC(=O)O)C(=O)/C=C/C(=O)N(C)Cc1ccccc1) [Cbz-Asp-Glu-Val-AAsp-CH═CH-CON(CH3)CH2Ph]", "YES"],
  ["Cbz-DEV[AAsp]-{CH═CH‑CON(CH2-1-Napth)2} [Cbz-Asp-Glu-Val-AAsp-CH═CH-CON(CH2-1-Napth)2]", "YES"],
  ["Cbz-LET[AAsp]-{CH═CH‑CON(CH3)CH2CH2Ph} (SMILES CC(C)C[C@H](NC(=O)OCc1ccccc1)C(=O)N[C@@H](CCC(=O)O)C(=O)N[C@H](C(=O)NN(CC(=O)O)C(=O)/C=C/C(=O)N(C)CCc1ccccc1)[C@@H](C)O) [Cbz-Leu-Glu-Thr-AAsp-CH═CH-CON(CH3)CH2CH2Ph]", "NO"]
]}
